System: RXF 393 renal
Protocol text: NCI-60 one-dose screen, 48 h
Assay context: 10 µM
This is part of a sample that, as a whole, favours compounds with a hit. Of some 83,000 tested, about 20% had one in any assay. The source made the active and inactive calls. How the source made its calls: active means growth percent below 10; inactive means the rest.
Your answer must be one of the following: active, inactive

Solved entries:
Request: What classification did COc1ccccc1[As]=[As]c1ccccc1OC (stereo not given) end up with in this test?
Response: active

Request: What classification did CN(CCCl)c1ccc(/C=C/C2=[N+](C)c3ccccc3C2(C)C)cc1 end up with in this test?
Response: inactive

Request: What classification did COc1ccccc1/C=C/[N+](=O)[O-] end up with in this test?
Response: active

Request: What classification did S=C=NCCc1ccccc1 end up with in this test?
Response: inactive

Proceed to the following item.
Request: What classification did CC(C)C1(NC(=O)C2CC3c4cccc5[nH]cc(c45)CC3N(C)C2)OC2(O)C3CCCN3C(=O)C(Cc3ccccc3)N2C1=O (stereo not given) end up with in this test?
Response: inactive

Taken from PubChem BioAssay (NCI).
